# target-or-system: BKV VP1 (BK virus (BKV), AS strain) (UniProt P14996)
# Sequence (P14996 whole entry): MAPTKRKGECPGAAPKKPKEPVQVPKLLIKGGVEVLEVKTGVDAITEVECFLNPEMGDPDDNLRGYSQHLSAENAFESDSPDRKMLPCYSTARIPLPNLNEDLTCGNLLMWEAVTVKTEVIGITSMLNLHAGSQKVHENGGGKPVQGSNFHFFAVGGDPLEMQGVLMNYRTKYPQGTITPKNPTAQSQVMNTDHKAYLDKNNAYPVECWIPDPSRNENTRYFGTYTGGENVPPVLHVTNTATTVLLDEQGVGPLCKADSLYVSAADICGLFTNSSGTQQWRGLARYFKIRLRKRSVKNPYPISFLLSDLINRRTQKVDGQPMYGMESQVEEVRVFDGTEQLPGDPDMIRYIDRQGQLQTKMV
# assay-remarks: direct ELISA
experimental-readout: pEC50
Notebook: values listed as pEC50 are -log10 of the concentration (mol/L).

# count of solved cases: 4
NI-307.26E10 (antibody, V domains shown) VH: EVQLVESGGGLVLPGGSLRLSCAVSGFTVRNEYMRWARQAPGRGLEWVSVIYRDGQTHHADTVKGRFDVSKDTSKNTMYLQMHNLRVDDTAIYYCARGHYGPWGQGTLVTVSS VL: DIQMTQSPSTLPASVGDRVTITCRASQSINNWLAWYQQKPGKAPNLLIYDASNLETGVPSRFSGSGSGTEFTLTISSLQPDDFATYYCQQYNSHSHTWTFGQGTKVEIK = 8.87
NI-307.24C6 (antibody, V domains shown) VH: QLQLQESGPGLVKPSGTLSLICVVSGSSIRSNIWWWNWVRQSPGKGLEWIGEIYHSGSTNYSPSLKSRVTMSVDNSKNQFSLKMSSVTAADTAVYFCAINTRTSISGVLYDTFDVWGQGTMVTVSS VL: EIVLTQSPATLSLSSGERATLSCRASQSVSGYLAWYQQKPGQAPRLLIYDGSNRATGIPARFSGSGSGTDFTLTISSLEPEDFAVYYCQHRSNWPMYTFGQGTKLEIK = 9.09
NI-307.78C3 (antibody, V domains shown) VH: QVQLQESGPGLVKPSGTLSLTCTVSGGSISGRIWWSWVRQPPGKGLEWIGEIYHSGSTNYSPSLRGRVTISVDTSKQHFSLKMTSVTAADTAMYYCVRGELALGFDSWGQGTLVTVSS VL: QSALTQPPSASGSPGQSVTISCTGTSSDVGGYNSVSWYQQHPRRAPKLMIYEVSKRPSGVPDRFSGSKSGNTASLTVSGLQADDEAHYYCSSYAGSNNLVFGGGTMLTVL = 8.71
NI-307.1E1 (antibody, V domains shown) VH: EVQLVESGGGLVKPGGSLRLSCAASGFIFSDAWMNWVRQAPGKGLEWVGHIKSRPAGGTTEYAAPVKGRFTISRDDSTDTLYLQMNNLKAEDTAVYYCSTGHYGVYGLGTLVTVSS VL: DIQMTQSPSTLSASVGDRVTITCRASQSIRDYLAWYQQKPGKAPKLLIYDGSILEGGVPSRFSGSVSGTDFTLTISSLQSDDFATYYCQQYTSYSSWTFGQGTKVEIK = 8.22

Return the recorded pEC50 value; entry: NI-307.57D5 (antibody, V domains shown) VH: EVQLVESGGGLAQPGGSLRLSCAGSGFTLSDFAMSWVRRAPGKGLEWVSSLTPSGRNSFYSDSVKGRFTISRDNWKNTLYLEMNLLRPEDTAVYYCARPGAPKNSDSKYSYVRVDFQHWGQGTLVTVSS VL: NFMLTQPHSVSESPGRTVTISCTRSSGSIANNFVQWYQHRPGSAPTTLIYEDDQRPSGVPDRFSGSVDSFSNSASLTISGLKTEDEADYFCQSYDNHNWVFGGGTTLTVL
7.43
